System: M-1 rhabdomycoscercoma
Experiment: In vivo photosensitization, M-1 rhabdomyosarcoma system in DBA/J2 mice
Details: Table 6; 567 Jo/cm^2; 8 animals per group
result-type: Cures (tumor regressed and tumor-free for 30 days)

1) C=Cc1c(C)c2cc3nc(cc4[nH]c(cc5nc(cc1[nH]2)C(C)=C5CCC(=O)O)c(CCC(=O)OC)c4C)C1(C)C3=CC=C(C(=O)OC)C1C(=O)OC (stereo not shown) : 4
2) C=Cc1c(C)c2cc3nc(cc4[nH]c(cc5nc(cc1[nH]2)C(C)=C5CCC(=O)O)c(CCC(=O)O)c4C)C1(C)C3=CC=C(C(=O)OC)C1C(=O)OC (stereo not shown) : 4
3) C=Cc1c(C)c2cc3nc(cc4[nH]c(cc5nc(cc1[nH]2)C1(C)C5=CC=C(C(=O)OC)C1C(=O)OC)c(C)c4CCC(=O)O)C(CCC(=O)O)=C3C (stereo not shown) : 3
4) C=Cc1c(C)c2cc3nc(cc4[nH]c(cc5nc(cc1[nH]2)C1(C)C5=CC=C(C(=O)OC)C1C(=O)OC)c(C)c4CCC(=O)O)C(CCC(=O)OC)=C3C (stereo not shown) : 3

---

Test: in vivo
Settings: mouse, iv
result-type: remaining at 3 h (%)

1. C=Cc1c(C)c2cc3nc(cc4[nH]c(cc5nc(cc1[nH]2)C(C)=C5CCC(=O)O)c(CCC(=O)OC)c4C)C1(C)C3=CC=C(C(=O)OC)C1C(=O)OC (stereo not shown) : 100
